assay: qHTS assay to identify small molecule inhibitors of chordoma cells - UCH-2 (AID 1259356); details: UCH-2 chordoma viability, CellTiter-Glo ATP luminescence, 48 h; series mostly up to 46.1 µM
Records with an inconclusive call do not appear. Calls of active or inactive are those of the source. The call rests on the fitted dose curve; in most records, active means well fitted cell-killing curve with a large enough effect; inconclusive means small, poorly fitted or top-dose-only effect; inactive means flat fitted curve, though single readings scatter.
Labels: active, inactive

MOLECULE: CCCNC(C)C(=O)Nc1ccccc1C (stereo unspecified)
CLASSIFICATION: inactive

MOLECULE: CCCN(CCC)CCc1cccc2c1CC(=O)N2
CLASSIFICATION: inactive

MOLECULE: Cc1cccc(C)c1NC(=O)C(C)N (stereo unspecified)
CLASSIFICATION: inactive

MOLECULE: CC1=NS(=O)(=O)c2cc(Cl)ccc2N1
CLASSIFICATION: inactive

MOLECULE: O=C1NCN(c2ccccc2)C12CCN(CCCC(c1ccc(F)cc1)c1ccc(F)cc1)CC2
CLASSIFICATION: active

MOLECULE: C[C@H](CS)C(=O)N1CCC[C@H]1C(=O)O
CLASSIFICATION: inactive

MOLECULE: NS(=O)(=O)c1cc2c(cc1Cl)NC(C1CC3C=CC1C3)NS2(=O)=O (stereo unspecified)
CLASSIFICATION: inactive

MOLECULE: CCCOc1ccccc1-c1nc2n[nH]nc2c(=O)[nH]1
CLASSIFICATION: inactive

MOLECULE: CC(=O)Nc1nnc(S(N)(=O)=O)s1
CLASSIFICATION: inactive

MOLECULE: COC(=O)[C@H]1[C@H]2C[C@@H]3c4[nH]c5cc(OC)ccc5c4CCN3C[C@H]2C[C@@H](OC(=O)c2cc(OC)c(OC)c(OC)c2)[C@@H]1OC
CLASSIFICATION: inactive

MOLECULE: CN1C(=O)CC[C@H]1c1cccnc1
CLASSIFICATION: inactive
